Source listed as patent US10597388B2.

test system: arrowleaf sida (Sida rhombifolia); assay: Test E greenhouse herbicide test, pre- and postemergence; format: in vivo; conditions: Postemergence, 31 g ai/ha; visual, scale 0 no effect to 100 complete control
Task for the reader: assign each of the following compounds its reported Plant response rating, Arrowleaf Sida.
Returns: the value as a bare number; no unit string appended.

Plant response rating, Arrowleaf Sida in this record for CCC(=O)Oc1c(C)nn(C)c(=O)c1-c1c(C)sc2ccc(Cl)cc12 [Compound 109] : 65

So for COc1nn(C)c(=O)c(-c2c(C)sc3ccc(Cl)cc23)c1O [Compound 100] , the logged Plant response rating, Arrowleaf Sida turned out to be 50

So, CC(=O)Oc1c(C)nn(C)c(=O)c1-c1ccc(F)c2ccccc12 [Compound 90] ? Its Plant response rating, Arrowleaf Sida was 80

CCOC(=O)Oc1c(C)nn(C)c(=O)c1-c1c(C)sc2c(C)cc(C)cc12 [Compound 83] yielded Plant response rating, Arrowleaf Sida of 50

The recorded Plant response rating, Arrowleaf Sida for entry CSCC(=O)Oc1c(C)nn(C)c(=O)c1-c1cccc2ccccc12 [Compound 171] equals 80
